B1: scFv; the commonest letter at each place (parent)
chain 1: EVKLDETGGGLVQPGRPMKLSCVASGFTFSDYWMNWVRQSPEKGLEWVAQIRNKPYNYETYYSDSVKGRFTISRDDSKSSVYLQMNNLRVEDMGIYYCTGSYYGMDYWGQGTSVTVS
chain 2: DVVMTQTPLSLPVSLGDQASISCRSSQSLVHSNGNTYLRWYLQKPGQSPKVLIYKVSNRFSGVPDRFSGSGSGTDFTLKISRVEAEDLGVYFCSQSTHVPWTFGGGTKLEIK

- Variants of: B1
- METHOD_DESCRIPTION: yeast surface expression (ratio to wild type); higher = more expressed
- REPORTED_CONDITIONS: format: scFv 4-4-20, heavy + light
MEASURE: yeast surface expression
Output spec: single numeric token, no unit.

Observe how each entry below is paired with its result.
{"CHANGES": "chain 1 Y107V W108R", "yeast surface expression": 0.492}
{"CHANGES": "chain 1 S30P D31S N35P", "yeast surface expression": 0.757}
{"CHANGES": "chain 1 Y103W G104P", "yeast surface expression": 1}
{"CHANGES": "chain 1 G100L G109V", "yeast surface expression": 0.253}

### Prompt Give the reported yeast surface expression for this variant. chain 1 Y103V G109L
### Response 0.247

### Prompt Give the reported yeast surface expression for this variant. chain 1 Y102Q Y103E
### Response 0.977

### Prompt Give the reported yeast surface expression for this variant. chain 1 F29K S30A W36A
### Response 0.756

### Prompt Give the reported yeast surface expression for this variant. chain 1 W36E
### Response 0.765

### Prompt Give the reported yeast surface expression for this variant. chain 1 N35F V37D
### Response 0.704

### Prompt Give the reported yeast surface expression for this variant. chain 1 W33G V37L
### Response 0.49

### Prompt Give the reported yeast surface expression for this variant. chain 1 Y103E W108T
### Response 1.01

### Prompt Give the reported yeast surface expression for this variant. chain 1 G100W G104I
### Response 0.359

### Prompt Give the reported yeast surface expression for this variant. chain 1 F29M W33V
### Response 0.982

### Prompt Give the reported yeast surface expression for this variant. chain 1 Y102D Y103L G109P
### Response 0.465

### Prompt Give the reported yeast surface expression for this variant. chain 1 Y32H V37Q
### Response 0.372

### Prompt Give the reported yeast surface expression for this variant. chain 1 W33E N35G
### Response 1.05

The measurements presented in this section are drawn from the FLAb antibody collection (doi:10.7554/elife.23156).
